# measurement_notes: recombinant barcode read abundance after kanamycin selection (control-corrected) (log10(CPM+1)); higher = more efficient recombination; sequences stand for … in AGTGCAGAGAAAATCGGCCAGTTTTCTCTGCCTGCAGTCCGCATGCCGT…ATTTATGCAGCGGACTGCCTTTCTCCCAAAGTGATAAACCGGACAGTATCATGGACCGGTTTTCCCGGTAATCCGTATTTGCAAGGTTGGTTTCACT; site = the 11-nt target
So basically: recombinant barcode read abundance (log10) at 0.3 or higher? That is true (1). Lower than 0.3? That is false (0).

Hello, I need to know if CGAGCCCTTTGGGTTCTAACCTGTTGCTGAG [CGAGCCCCTCA_LTGcore_TT_RTGcore_CT] (site CGAGCCCCTCA) (LTG core: TT, RTG core: CT) has measured recombinant barcode read abundance (log10) not below 0.3. Thanks!
false (0)

Record GCGCGACTGTGGGTTCTAACCTGTTGCTTAG [GCGCGACCTAA_LTGcore_TG_RTGcore_CT] (site GCGCGACCTAA) (LTG core: TG, RTG core: CT) ; criterion: recombinant barcode read abundance (log10) no lower than 0.3. Met?
false (0)

Threshold query (recombinant barcode read abundance (log10) >= 0.3) on ATGTCCCATTGGGTTCTAACCTGTTGCTCAG [ATGTCCCCTGA_LTGcore_AT_RTGcore_CT] (site ATGTCCCCTGA) (LTG core: AT, RTG core: CT)
false (0)

I'd appreciate it if you could say whether TGTATTCCTTGGGTTCTAACCTGTTGCCTAG [TGTATTCCTAG_LTGcore_CT_RTGcore_CT] (site TGTATTCCTAG) (LTG core: CT, RTG core: CT) has recombinant barcode read abundance (log10) at least equal to 0.3.
false (0)

Assess whether reported recombinant barcode read abundance (log10) for TAGAGGGATTGGGTTCTAACCTGTTGCGGAG [TAGAGGGCTCC_LTGcore_AT_RTGcore_CT] (site TAGAGGGCTCC) (LTG core: AT, RTG core: CT) sits at 0.3 or higher.
false (0)

Dear colleague, could you confirm whether ACGGGACCCTGGGTTCTAACCTGTTGCAGAG [ACGGGACCTCT_LTGcore_CC_RTGcore_CT] (site ACGGGACCTCT) (LTG core: CC, RTG core: CT) has recombinant barcode read abundance (log10) at or above 0.3?
true (1)

Please check the record CATATTACCTGGGTTCTAACCTGTTGCCTAG [CATATTACTAG_LTGcore_CC_RTGcore_CT] (site CATATTACTAG) (LTG core: CC, RTG core: CT) and state if its recombinant barcode read abundance (log10) is at or above 0.3.
false (0)

Exam item: decide whether the reported recombinant barcode read abundance (log10) for AAACAGTCTTGGGTTCTAACCTGTTGCCTGG [AAACAGTCTAG_LTGcore_CT_RTGcore_CC] (site AAACAGTCTAG) (LTG core: CT, RTG core: CC) is at least 0.3.
true (1)

Test whether the sequence CGCGCCCTATGGGTTCTAACCTGTTGCGGAG [CGCGCCCCTCC_LTGcore_TA_RTGcore_CT] (site CGCGCCCCTCC) (LTG core: TA, RTG core: CT) records recombinant barcode read abundance (log10) of 0.3 or higher.
true (1)

Is it the case that GAGTCCTCTTGGGTTCTAACCTGTTGCCTGT [GAGTCCTCTAG_LTGcore_CT_RTGcore_AC] (site GAGTCCTCTAG) (LTG core: CT, RTG core: AC) has recombinant barcode read abundance (log10) reaching or exceeding 0.3?
false (0)

Is reported recombinant barcode read abundance (log10) greater than or equal to 0.3 here: CGGTCCCAGTGGGTTCTAACCTGTTGCCAAG [CGGTCCCCTTG_LTGcore_AG_RTGcore_CT] (site CGGTCCCCTTG) (LTG core: AG, RTG core: CT)
false (0)

API: above_or_equal(metric=recombinant barcode read abundance (log10), cutoff=0.3) for item GGTGCCCCTTGGGTTCTAACCTGTTGCCGCG [GGTGCCCCTCG_LTGcore_CT_RTGcore_CG] (site GGTGCCCCTCG) (LTG core: CT, RTG core: CG)
false (0)

Please check the record GCGGGACCTTGGGTTCTAACCTGTTGCCTAT [GCGGGACCTAG_LTGcore_CT_RTGcore_AT] (site GCGGGACCTAG) (LTG core: CT, RTG core: AT) and state if its recombinant barcode read abundance (log10) is at or above 0.3.
true (1)

Check this sequence for recombinant barcode read abundance (log10) at or above 0.3: GGGAGCCCGTGGGTTCTAACCTGTTGCTGAG [GGGAGCCCTCA_LTGcore_CG_RTGcore_CT] (site GGGAGCCCTCA) (LTG core: CG, RTG core: CT)
false (0)

API: above_or_equal(metric=recombinant barcode read abundance (log10), cutoff=0.3) for item GAGTCCACCTGGGTTCTAACCTGTTGCGTAG [GAGTCCACTAC_LTGcore_CC_RTGcore_CT] (site GAGTCCACTAC) (LTG core: CC, RTG core: CT)
false (0)

Check this sequence for recombinant barcode read abundance (log10) at or above 0.3: AAACAGTCTTGGGTTCTAACCTGTTGCCTAG [AAACAGTCTAG_LTGcore_CT_RTGcore_CT] (site AAACAGTCTAG) (LTG core: CT, RTG core: CT)
true (1)

Does the reported recombinant barcode read abundance (log10) for GTCGCCCACTGGGTTCTAACCTGTTGCTAAG [GTCGCCCCTTA_LTGcore_AC_RTGcore_CT] (site GTCGCCCCTTA) (LTG core: AC, RTG core: CT) fall at or above the 0.3 mark?
true (1)

Does the sequence GAGTCCACTTGGGTTCTAACCTGTTGCGTCT [GAGTCCACTAC_LTGcore_CT_RTGcore_AG] (site GAGTCCACTAC) (LTG core: CT, RTG core: AG) have recorded recombinant barcode read abundance (log10) that is 0.3 or more?
false (0)

Is the recorded value of recombinant barcode read abundance (log10) equal to or greater than 0.3 for this sequence? GGACACCCCTGGGTTCTAACCTGTTGCCTAG [GGACACCCTAG_LTGcore_CC_RTGcore_CT] (site GGACACCCTAG) (LTG core: CC, RTG core: CT)
true (1)

Could you please find out whether AGGCCTCCTTGGGTTCTAACCTGTTGCCTAT [AGGCCTCCTAG_LTGcore_CT_RTGcore_AT] (site AGGCCTCCTAG) (LTG core: CT, RTG core: AT) has recombinant barcode read abundance (log10) that meets 0.3 or exceeds it?
true (1)

Tell me whether recombinant barcode read abundance (log10) is at least 0.3 here: CGAGCCCAATGGGTTCTAACCTGTTGCTGTT [CGAGCCCCTCA_LTGcore_AA_RTGcore_AA] (site CGAGCCCCTCA) (LTG core: AA, RTG core: AA)
false (0)
